Each entry below carries its reported pH value.
Experiment: Solubility of different salt types in biological vehicle (SGF, FeSSIF, FaSSIF), HPLC
Format: physicochemical
Details: FaSSIF, 37° C., 24 hours, supernatant
Enter the number alone.

Some solved cases for reference:
Cc1cccc(-c2nn3c(c2-c2ccc4ncnn4c2/C=C/C(N)=O)CCC3)n1 [Sulphate] = 2.50
Cc1cccc(-c2nn3c(c2-c2ccc4ncnn4c2/C=C/C(N)=O)CCC3)n1 [Compound of formula (I)] = 6.42
CS(=O)(=O)O.Cc1cccc(-c2nn3c(c2-c2ccc4ncnn4c2/C=C/C(N)=O)CCC3)n1 = 3.71
Cc1cccc(-c2nn3c(c2-c2ccc4ncnn4c2/C=C/C(N)=O)CCC3)n1.Cl [Hydrochloride] = 3.97

Please turn your attention to the following entry.
Request: Tell me pH value reported for `Cc1ccc(S(=O)(=O)O)cc1.Cc1cccc(-c2nn3c(c2-c2ccc4ncnn4c2/C=C/C(N)=O)CCC3)n1`
Result: 3.13

---

Experiment: Approximate solubility in pure water
Format: physicochemical
Conditions: thermodynamic from solid, room temperature, 2 mg sample, read-out: Approximate solubility S
quantity: solubility

Cc1ccc(S(=O)(=O)O)cc1.Cc1cccc(-c2nn3c(c2-c2ccc4ncnn4c2/C=C/C(N)=O)CCC3)n1 [Compound of formula (II)] = 49 to 98 mg/mL

Please turn your attention to the following entry.
Request: Tell me solubility reported for Cc1cccc(-c2nn3c(c2-c2ccc4ncnn4c2/C=C/C(N)=O)CCC3)n1 [Compound of formula (I)]
Result: < 1.9 mg/mL

---

Assay: Solubility of different salt types in biological vehicle (SGF, FeSSIF, FaSSIF), HPLC
Assay type: physicochemical
Details: FeSSIF, 37° C., 4 hours, supernatant
quantity: pH value
Enter the number alone.

Some solved cases for reference:
Cc1ccc(S(=O)(=O)O)cc1.Cc1cccc(-c2nn3c(c2-c2ccc4ncnn4c2/C=C/C(N)=O)CCC3)n1 [Compound of formula (II)] = 1.89
Cc1cccc(-c2nn3c(c2-c2ccc4ncnn4c2/C=C/C(N)=O)CCC3)n1.Cl [Hydrochloride] = 4.52
Cc1cccc(-c2nn3c(c2-c2ccc4ncnn4c2/C=C/C(N)=O)CCC3)n1 [Sulphate] = 4.22
Cc1cccc(-c2nn3c(c2-c2ccc4ncnn4c2/C=C/C(N)=O)CCC3)n1 [Compound of formula (I)] = 4.97

Please turn your attention to the following entry.
Request: Tell me pH value reported for `CS(=O)(=O)O.Cc1cccc(-c2nn3c(c2-c2ccc4ncnn4c2/C=C/C(N)=O)CCC3)n1`
Result: 4.58

---

Assay: Solubility of different salt types in biological vehicle (SGF, FeSSIF, FaSSIF), HPLC
Format: physicochemical
Details: FeSSIF, 37° C., 24 hours
quantity: State

Some solved cases for reference:
Cc1cccc(-c2nn3c(c2-c2ccc4ncnn4c2/C=C/C(N)=O)CCC3)n1 [Sulphate] = turbid
Cc1ccc(S(=O)(=O)O)cc1.Cc1cccc(-c2nn3c(c2-c2ccc4ncnn4c2/C=C/C(N)=O)CCC3)n1 = clear
CS(=O)(=O)O.Cc1cccc(-c2nn3c(c2-c2ccc4ncnn4c2/C=C/C(N)=O)CCC3)n1 = turbid
Cc1cccc(-c2nn3c(c2-c2ccc4ncnn4c2/C=C/C(N)=O)CCC3)n1 [Compound of formula (I)] = turbid

Please turn your attention to the following entry.
Request: Tell me State reported for Cc1cccc(-c2nn3c(c2-c2ccc4ncnn4c2/C=C/C(N)=O)CCC3)n1.Cl [Hydrochloride]
Result: turbid
